The reported numbers originate from patent EP0589484A1.

experimental.target: acetylcholinesterase (Mus musculus, UniProt P21836)
Construct: a mouse cerebral homogenate (as an acetylcholinesterase source); from tissue; host or cells: mouse cerebrum (homogenate)
Sequence (P21836 32-614): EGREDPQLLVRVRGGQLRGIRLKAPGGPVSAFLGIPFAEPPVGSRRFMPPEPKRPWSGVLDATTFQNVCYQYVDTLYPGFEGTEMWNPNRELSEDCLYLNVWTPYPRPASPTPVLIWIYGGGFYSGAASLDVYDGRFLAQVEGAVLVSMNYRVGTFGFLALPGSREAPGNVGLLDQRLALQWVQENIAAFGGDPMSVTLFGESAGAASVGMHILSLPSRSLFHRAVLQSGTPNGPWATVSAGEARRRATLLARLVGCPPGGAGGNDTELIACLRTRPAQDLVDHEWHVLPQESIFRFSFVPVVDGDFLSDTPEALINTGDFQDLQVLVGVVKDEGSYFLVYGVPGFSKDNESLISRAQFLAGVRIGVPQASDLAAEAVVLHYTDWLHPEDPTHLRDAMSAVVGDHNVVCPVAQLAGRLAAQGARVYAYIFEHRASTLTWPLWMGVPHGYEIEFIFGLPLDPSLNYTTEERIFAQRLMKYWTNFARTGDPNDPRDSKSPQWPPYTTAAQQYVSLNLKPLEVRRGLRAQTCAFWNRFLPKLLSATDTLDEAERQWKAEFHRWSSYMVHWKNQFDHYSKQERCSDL
procedure.text: Inhibitory activity for acetylcholinesterase (method of Ellman et al.)
Format: biochemical
applied.conditions: final concentration of the test compound 10 µg/ml; mouse cerebral homogenate; read-out: Inhibition (%)

molecule: CN(C)CCOCC(O)c1cccc2cccc(Cl)c12 (stereo not drawn) [compound 247]
inhibition at 10 µg/mL: 26%
//
molecule: OC(COCCC1CCN(Cc2ccccc2)CC1)c1ccc(F)cc1 (stereo not drawn) [compound 62]
inhibition at 10 µg/mL: 78%
//
molecule: CN(C)CCCOCC(O)c1ccc2sccc2c1 (stereo not drawn) [compound 336]
inhibition at 10 µg/mL: 21%

----------
experimental.target: acetylcholinesterase (Mus musculus, UniProt P21836)
Construct: a mouse cerebral homogenate (as an acetylcholinesterase source); from tissue; host or cells: mouse cerebrum (homogenate)
procedure.text: Inhibitory activity for acetylcholinesterase (method of Ellman et al.)
Format: biochemical
applied.conditions: final concentration of the test compound 10 µg/ml; mouse cerebral homogenate; read-out: Inhibition (%)
Readings of inhibition at 10 µg/mL for the listed molecules
recorded.endpoint: inhibition at 10 µg/mL (%)

molecule: Cc1cccc(C(O)COCCC2CCN(Cc3ccccc3)CC2)c1 (stereo not shown)
number: 89
--
molecule: CN(C)CCOCC(O)c1ccc(Cl)c2ccccc12 (stereo not shown)
number: 25
--
molecule: CN(C)CCOCC(O)c1cccc([N+](=O)[O-])c1 (stereo not shown)
number: 26
--
molecule: CN(C)CCOCC(O)c1ccc(Cl)c(Cl)c1 (stereo not shown)
number: 26
--
molecule: CN(C)CCOCC(O)c1ccc2c(c1)CCN2 (stereo not shown)
number: 45
--
molecule: CN(C)CCOCC(O)c1ccc(S(=O)(=O)Cc2ccccc2)cc1 (stereo not shown)
number: 74
--
molecule: Cc1cc(C)cc(Oc2ccc(C(O)COCCN(C)C)cc2)c1 (stereo not shown)
number: 92
--
molecule: O=C1CCc2cc(C(O)COCc3cccnc3)ccc2N1 (stereo not shown)
number: 61
--
molecule: OC(COCCN1CCN(c2ncccn2)CC1)c1ccc2sccc2c1 (stereo not shown)
number: 26
--
molecule: CN(C)CCOCC(O)c1nccn1Cc1ccccc1 (stereo not shown)
number: 30

----------
experimental.target: acetylcholinesterase (Mus musculus, UniProt P21836)
Construct: a mouse cerebral homogenate (as an acetylcholinesterase source); from tissue; host or cells: mouse cerebrum (homogenate)
procedure.text: Inhibitory activity for acetylcholinesterase (method of Ellman et al.)
Type: biochemical
applied.conditions: final concentration of the test compound 10 µg/ml; mouse cerebral homogenate; read-out: Inhibition (%)
Where a name gives a salt, the structure may show the parent alone.
Readings of inhibition at 10 µg/mL for the listed compounds

compound: Cc1ccccc1-c1ccc(C(O)COCCN(C)C)cc1 (stereo not drawn) [compound 65]
inhibition at 10 µg/mL (%): 62
--
compound: CN(C)CCOCC(O)c1cccc(NS(=O)(=O)c2ccccc2)c1 (stereo not drawn) [compound 182]
inhibition at 10 µg/mL (%): 38
--
compound: CN(C)CCOCC(O)c1ccc2c(c1)CC(=O)N2 (stereo not drawn) [compound 322]
inhibition at 10 µg/mL (%): 20
--
compound: Cc1ccc(Oc2ccc(C(O)COCCN(C)C)cc2)cc1 (stereo not drawn) [compound 83]
inhibition at 10 µg/mL (%): 93
--
compound: CN(C)CCOCC(O)c1cccc2ccccc12 (stereo not drawn) [compound 228, hydrochloride]
inhibition at 10 µg/mL (%): 30
--
compound: CN(C)CCOCC(O)c1ccc(F)cc1 (stereo not drawn) [compound 38]
inhibition at 10 µg/mL (%): 36
--
compound: CN(C)CCOCC(O)c1cccc(OCc2ccccc2)c1 (stereo not drawn) [compound 47]
inhibition at 10 µg/mL (%): 38
--
compound: CN(C)CCOCC(O)c1ccc(OCc2ccncc2)cc1 (stereo not drawn) [compound 86]
inhibition at 10 µg/mL (%): 50
--
compound: CN(C)CCOCC(O)c1ccc(Oc2ccc(F)cc2)cc1 (stereo not drawn) [compound 67]
inhibition at 10 µg/mL (%): 90
--
compound: OC(COCCN1CCN(Cc2ccccc2)CC1)c1cccc2ccccc12 (stereo not drawn) [compound 302]
inhibition at 10 µg/mL (%): 38
--
compound: CN(C)CCOCC(O)c1ccc(Oc2ccccc2Cl)cc1 (stereo not drawn) [compound 70]
inhibition at 10 µg/mL (%): 91
--
compound: CC(OCCN(C)C)C(O)c1ccccc1 (stereo not drawn) [compound 30]
inhibition at 10 µg/mL (%): 22
--
compound: CN(C)CCCOCC(O)c1cccc2ccccc12 (stereo not drawn) [compound 233]
inhibition at 10 µg/mL (%): 59
--
compound: OC(COCCC1CCN(Cc2ccccc2)CC1)c1ccc(Oc2ccccc2)cc1 (stereo not drawn) [compound 78]
inhibition at 10 µg/mL (%): 90
--
compound: OC(COCCN1CCc2ccccc2C1)c1ccccc1 (stereo not drawn) [compound 165]
inhibition at 10 µg/mL (%): 24
--
compound: CN(C)CCOCC(O)c1ccc(OCc2cccc(Cl)c2)cc1 (stereo not drawn) [compound 97]
inhibition at 10 µg/mL (%): 38
--
compound: COc1ccc(C(O)COCCN(C)C)c2ccccc12 (stereo not drawn) [compound 239]
inhibition at 10 µg/mL (%): 22
--
compound: CN(C)CCOCC(O)c1ccc(OCc2ccccc2)cc1 (stereo not drawn) [Compound No. 48, hydrochloride]
inhibition at 10 µg/mL (%): 51
--
compound: CCN(CC)CCOCC(O)c1cccc(C)c1 (stereo not drawn) [compound 90]
inhibition at 10 µg/mL (%): 52
--
compound: CN(C)CCOCC(O)c1ccc(Oc2ccccc2)cc1 (stereo not drawn) [Compound No. 54, hydrochloride]
inhibition at 10 µg/mL (%): 83
--
compound: CN(C)CCOCC(O)c1cccc(Cc2ccccc2)c1 (stereo not drawn) [compound 58]
inhibition at 10 µg/mL (%): 45
